Attribution: PubChem BioAssay AID688

ASSAY_PROCEDURE: mutant yeast GCN4 reporter luminescence inhibitors – S. cerevisiae, eIF2B-epsilon R284H, Beta-Glo luminescence, primary screen (AID 688)
TEST_SETTINGS: GCN4-lacZ luminescence; measured here: mutant yeast growth, toxicity, concentration not given here
The campaign covered roughly 27,000 compounds. About 250 (0.93%) were called active. The entries come from a sample that favours actives as a whole.
READOUT_KIND: growth inhibition (%)
One number for each entry, in %.

Example compounds with recorded growth inhibition:
>  <COMPOUND>
C=CCn1c(SCCOc2ccc(OC)cc2)nnc1C(NC(=O)c1ccc(OC)cc1)C(C)C (stereo not given)

>  <READOUT_NUMBER>
-10

$$$$
>  <COMPOUND>
CC1(C)CC(=O)C=C(NCCN2CCNCC2)C1

>  <READOUT_NUMBER>
9.46

$$$$
>  <COMPOUND>
Cc1cc(Oc2ccccc2)nc(N2CCOCC2)n1

>  <READOUT_NUMBER>
5.41

$$$$

// for each compound below, give its growth inhibition
1. CC1=C(C(=O)Nc2ccccc2)C(c2ccco2)C(C#N)=C(SCC(N)=O)N1 (stereo not given)
2. Cc1cc(C)n(-c2c(F)c(F)c(COC(=O)c3ccccc3)c(F)c2F)n1
3. Cc1ccc(-n2c(SCC(=O)Nc3ccc4c(c3)OCO4)nnc2-c2ccccn2)cc1
4. CCC(C(=O)NCc1ccc(OC)cc1)n1nc(C)n2c(cc3occc32)c1=O (stereo not given)
5. COc1ccccc1-n1nnnc1S(=O)(=O)Cc1ccc(Cl)cc1
6. Cc1noc(NS(=O)(=O)c2ccc(NC(=O)C34CCC(CC3)C4)cc2)c1C
7. CCCCOC(=O)Cn1c(=N)n(CCN(CC)CC)c2ccccc21

Response line:
[-15, 23, -2.78, -9.52, -20.6, 2.7, 19.4]
